The measurements presented in this section are drawn from PubChem BioAssay (NCI).

For each entry below, report its growth value.
Test system: HS 578T breast
Assay: NCI-60 one-dose screen, 48 h (100 = growth as untreated, 0 = no growth, -100 = all killed)
Details: 10 µM unless noted
The panel holds about 83,000 compounds, 20% with a hit somewhere; the sample as a whole holds those more often. Active and inactive are the calls of the source. How the source made its calls: active means growth percent below 10; inactive means the rest.

Check out these entries, answers already filled in.
{"columns": ["molecularString", "testedSystem", "readoutType", "observedMeasurement"],
 "data": [
  ["NC(N)=Nc1ccc(Oc2ccc(Nc3ccc(Cl)c(C(F)(F)F)c3)cc2)cc1", "HS 578T breast", "growth", "56.1% (inactive)"],
  ["O=S(=O)(NCCCNc1nccc(-c2[nH]c(-c3ccccc3)nc2-c2ccc(Cl)c(O)c2)n1)c1cccc(F)c1", "HS 578T breast", "growth", "96.2% (inactive)"],
  ["O=C(CN1CCN(c2cc(=O)n(-c3ccccc3)c3ccccc23)CC1)Nc1nc(-c2ccc(Cl)cc2)cs1", "HS 578T breast", "growth", "92.8% (inactive)"],
  ["O=C(CN1CCN(c2cc(=O)[nH]c3ccc(F)cc23)CC1)Nc1ccc(Cl)cc1", "HS 578T breast", "growth", "34.6% (inactive)"]
]}

Moving on to the next molecule.
Query (molecule): O=C(CSc1nnc(-c2ccc3nc(-c4ccccc4)[nH]c3c2)o1)Nc1ccc(C(=O)/C=C/c2ccccc2)cc1 ; field requested: growth
103% (inactive)

----------
Test system: MOLT-4 leukemia
Experiment: NCI-60 one-dose screen, 48 h (100 = growth as untreated, 0 = no growth, -100 = all killed)
Conditions: 10 µM unless noted
Compounds without any hit were thinned out: in the full panel of roughly 83,000, 20% have a hit.
Each entry falls into one class according to its growth; the ranges are low class (below 30%), middle class (30% to below 80%), high class (80% or more)

{"columns": ["molecule", "class"],
 "data": [
  ["O=C(CSc1nc2ccccc2c(=O)n1-c1ccccc1)Nc1cccc(C(=O)/C=C/c2ccccc2)c1", "high class"],
  ["CC(C)(C)n1nnnc1C(Nc1cccc2c1OCO2)c1cc2cccc3ccc4cccc1c4c32 (stereo not drawn)", "middle class"],
  ["CC(C)(C)c1ccc(C(=O)Nc2nc3ccc(O)cc3s2)cc1", "middle class"],
  ["CC(C)(C)c1ccc(-c2nnc(-c3nc4ccccc4nc3Cl)o2)cc1", "high class"],
  ["O=C(CN1CCN(c2cc(=O)n(-c3ccccc3)c3ccccc23)CC1)Nc1nc(-c2ccccc2)cs1", "low class"],
  ["c1ccc(C(c2nc3ncncc3[nH]2)N2CSc3nc4ncncc4n3C2)cc1 (stereo not drawn)", "low class"],
  ["COc1cc(-c2nc(SC(C)C)n(C(C)C)c(=O)c2C#N)ccc1OCc1ccccc1", "low class"],
  ["O=C1[C@H]2Cc3c([nH]c4ccccc34)[C@@H](c3ccc(Cl)cc3)N2C(=O)CN1C1CCN(Cc2ccccc2)CC1", "low class"],
  ["CC(C)(O)c1cncc(-c2ccc3ncnc(NCc4ccccc4)c3c2)c1", "high class"],
  ["C#CCOC(=O)[C@@H]1CCCN1CC#C", "middle class"]
]}

Returns: class label. Input: CCN(CC)c1ccc2c(c1)Oc1nc(N)c(C#N)c(N)c1C2Sc1ccc(C)cc1 (stereo not drawn)
low class

Now try CN(C)C(=O)c1cc(-c2ccc3ncnc(NCc4ccccc4)c3c2)cnc1N .
high class

Request: Cc1cccc(/C=C/C(=O)Nc2ncc(Cc3cccc(C)c3)s2)c1
low class

Queued: O=C(NNc1nc2cc(F)cc(F)c2n2cccc12)c1cnccn1
low class

What about O=C(NNc1nc2cc(F)ccc2n2cccc12)c1ccncn1 ?
low class

Also, Nc1nc(Nc2ccccc2SSc2ccccc2Nc2nc(N)nc(-c3ccccc3)n2)nc(-c2ccccc2)n1 please.
middle class

Ok, now CN1CCN(c2ccc(/C=N/Nc3nc4ccccc4c(=O)n3-c3ccccc3)cc2)CC1
high class

Next: CN(C)CCN(C)c1ccc2ncc(C#Cc3cncc(C(=O)Nc4ccc(CN5CCN(C)CC5)c(C(F)(F)F)c4)c3)n2n1
low class

What do you get for COc1ccc(-c2cc(-c3ccc(Cl)cc3)c(C#N)c(=O)n2Cc2ccc(C(=O)O)cc2)cc1 ?
middle class

Now give it for Cc1ccc(NC(=O)c2ccc(CN3CCOCC3)c(C(F)(F)F)c2)cc1Oc1ccc(-c2[nH]nc3ncnc(N)c23)cc1 too.
middle class

Also Cc1nc(-c2ccccc2O)ccc1C(=O)N=Nc1c(O)[nH]c2ccc(Br)cc12 , if possible.
high class

And COc1cc(-c2nc(SCCC(C)C)nc(NNC(=O)c3ccncc3)c2C#N)cc(OC)c1OC ?
middle class

Consider next the molecule Cc1ccc(-c2cc3nc(C(Cl)Cl)nc(-c4cccs4)n3n2)cc1 in the same way.
high class

Proceed to N#Cc1c(-c2cccs2)cc(-c2cnccn2)nc1SCC(=O)Nc1ccc(Br)cc1
high class

Here is the next molecule: Cc1ccc(-c2cc3nc(C(Cl)Cl)nc(-c4ccco4)n3n2)cc1
high class

----------
Test system: HCT-116 colon
Assay: NCI-60 one-dose screen, 48 h
Conditions: 10 µM unless noted
This is part of a sample that, as a whole, favours compounds with a hit. Of some 83,000 tested, about 20% had one in any assay. Active and inactive are the calls of the source. How the source made its calls: active means growth percent below 10; inactive means the rest.
Outcome field: choose from 1 (yes) = active, 0 (no) = inactive

Examples with answers:
{"columns": ["molecule", "testedSystem", "class"],
 "data": [
  ["CC(C)(C)n1cc(-c2ccnc(NCCCNS(=O)(=O)c3cccc(F)c3)n2)c(-c2ccc(Cl)c(O)c2)n1", "HCT-116 colon", "0 (no)"],
  ["O=S(=O)(Nc1cccc2ccccc12)c1ccc(-c2cnc(C3CC3)o2)cc1", "HCT-116 colon", "0 (no)"],
  ["O=C(CSc1nnc(-c2ccc(Cl)cc2)n1-c1ccccc1)Nc1ccc(Br)cc1", "HCT-116 colon", "1 (yes)"],
  ["COc1c(N2CC3CCCNC3C2)c(F)cc2c(=O)c(C(=O)N/N=C/c3ccccc3)cn(C3CC3)c12 (stereo not drawn)", "HCT-116 colon", "0 (no)"]
]}

Check the results log: what was the call for CCCCNNC(=O)c1ccc(-c2cccc(F)c2F)cc1 ?
0 (no)

Same again, this time with O=S(=O)(Oc1ccc(-c2nnc(Nc3ccccc3)s2)cc1)C(F)(F)C(F)(F)C(F)(F)C(F)(F)C(F)(F)C(F)(F)F
0 (no)

Check O=C(NNc1nc2cc(F)ccc2n2c(CN3CCC(O)C3)ccc12)c1cnccn1 (stereo not drawn) too.
0 (no)

Entry CN1CCN(Cc2ccc(NC(=O)c3cncc(C#Cc4cnc5ccc(OCC(C)(C)O)nn45)c3)cc2C(F)(F)F)CC1 please
1 (yes)

Another: COc1cc2nc(Cl)nc(Nc3cccc(C4=Nc5c(N)nc(N)nc5NC(c5ccc(Cl)cc5)C4)c3)c2cc1OC (stereo not drawn)
1 (yes)

----------
Test system: OVCAR-3 ovarian
Assay: NCI-60 one-dose screen, 48 h (100 = growth as untreated, 0 = no growth, -100 = all killed)
Settings: 10 µM unless noted
Method: Growth inhibition of the OVCAR-3 human tumor cell line is measured as a screen for anti-cancer activity. Cells are grown in 96 well plates and exposed to the test compound for 48 hours. Compounds are tested at a single concentration, which is 10^-5 M for most compounds. The reported endpoint is percent growth (GI% or GIPRCNT), where numbers from 0 - 100% represent growth inhibition, and numbers from -100% - 0 represent cell death. For example, a value of 40 represents 60% growth inhibition. […]
The panel holds about 83,000 compounds, 20% with a hit somewhere; the sample as a whole holds those more often.
readoutType: growth (%)
Numbers only, in %.

Here's what some known entries look like.
{"columns": ["molecule", "readoutType", "observedMeasurement"],
 "data": [
  ["N/C(=N\\C(N)=N\\c1nc2ccccc2s1)c1ccc(C(F)(F)F)cc1", "growth", 91.2],
  ["CN1CCN(c2ccc(/C=N/n3cnc4oc(-c5ccccc5)cc4c3=N)cc2)CC1", "growth", 90.2],
  ["Cc1ccc(-n2cc(/C=N/NC(=O)c3nc(N)n[nH]3)c(-c3ccc(S(C)(=O)=O)cc3)n2)cc1", "growth", 95.7],
  ["O=C(NCCN1CCCC1)c1ccc(-c2nc3ccc4[nH]ncc4c3c3c2CCCC3)cc1", "growth", 1.47],
  ["C#CCOc1ccc(/C=N\\Nc2nc(-c3ccc(C)cc3)cs2)cc1OC", "growth", 99.3],
  ["N#Cc1cccc(CN2CCC3=C(C2)C(=O)N(Cc2ccc(Cl)cc2)C2=NCCN23)c1", "growth", 23.4],
  ["CCCCCCCn1cc2c(NCCc3ccccc3)ncnc2n1", "growth", 121],
  ["C=C(C=O)[C@@H]1CC[C@]2(C)[C@H](C(=O)C=C3[C@H]4C[C@](C)(C(=O)OC)CC[C@]4(C)CC[C@]32C)[C@@]1(C)CCC#N", "growth", -47.2],
  ["CC(C)(C)c1ccc(C(=O)Nc2nc3ccc(O)cc3s2)cc1", "growth", 57.6],
  ["CC(C)(C)n1cc(-c2ccnc(NCCCNS(=O)(=O)c3cccc(F)c3)n2)c(-c2ccc(Cl)c(O)c2)n1", "growth", 109]
]}

Would you be so kind as to report growth for each listed record?
1. CCCn1cnc2c(c1=N)C(c1ccc(Cl)cc1)c1sc3c(CC)cccc3c1O2 (centres undefined)
2. Nc1nc(Nc2ccccc2SSc2ccccc2Nc2nc(N)nc(-c3ccccc3)n2)nc(-c2ccccc2)n1
3. Nc1ncc(-c2ccc3ncnc(N4CCc5cc(F)c(F)cc54)c3c2)cn1
4. NC(=O)c1cccc(-n2ccc3cc(NC(=O)Nc4ccc(N5CCOCC5)c(C(F)(F)F)c4)ccc32)n1

1: 6.2; 2: 90.3; 3: 26.3; 4: 7.68
